Recorded log10 EC50 values for a group of molecules are listed next.
target: human 5-HT1A receptor (Homo sapiens (Human)); assay: Test 2: agonist activity for human 5-HT1A receptor ([35S]GTPγS binding); settings: [35S]GTPγS binding; concentration at which half the activity of Emax was obtained
Values are log10 of EC50 in µM.

> print(dat)
                                   molecule    endpoint  measured.number
1  O=C1c2cn[nH]c2CCN1CCN1CCC(c2noc3ccccc23)CC1 [Example 189]  log10 EC50            -0.16
2  Cc1cc2c(cn1)C(=O)N(CCN1CCC(c3noc4ccccc34)CC1)CC2 [Example 135]  log10 EC50            -2.21

Supply log10 EC50 value. Item: Cc1cc2c(n1C)CCCN(CCN1CCC(c3noc4ccccc34)CC1)C2=O [Example 166] -2.21

* * *

molecular target: human 5-HT1A receptor (Homo sapiens (Human), UniProt P08908)
Sequence (P08908 whole entry): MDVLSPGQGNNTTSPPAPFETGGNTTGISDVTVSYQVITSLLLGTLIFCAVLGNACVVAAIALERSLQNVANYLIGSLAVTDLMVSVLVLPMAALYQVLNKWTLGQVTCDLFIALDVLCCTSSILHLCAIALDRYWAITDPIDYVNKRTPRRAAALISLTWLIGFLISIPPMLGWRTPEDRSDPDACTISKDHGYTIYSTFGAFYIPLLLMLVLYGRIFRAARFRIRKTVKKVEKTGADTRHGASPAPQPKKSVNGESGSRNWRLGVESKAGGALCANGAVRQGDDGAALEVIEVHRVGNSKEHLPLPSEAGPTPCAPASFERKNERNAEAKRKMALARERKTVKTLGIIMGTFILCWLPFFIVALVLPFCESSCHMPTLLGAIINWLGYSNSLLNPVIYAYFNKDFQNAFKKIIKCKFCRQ
Please use the following Ki ranges when assigning a class: bottom end: < 6 nM; midrange: ≥ 6 nM and < 20 nM; top end: ≥ 20 nM

Example results:
> print(dat)
                                   molecule  class.label
1  Cn1ncc2c1CCC(CCN1CCC(c3noc4ccccc34)CC1)C2=O (stereo not drawn)     midrange
2  Cn1nc(Br)c2c1CCN(CCN1CCC(c3noc4ccccc34)CC1)C2=O     midrange
3  CC(C)n1cc2c(n1)CCN(CCN1CCN(c3nsc4ccccc34)CC1)C2=O     midrange
4  O=C1c2[nH]cnc2CCCN1CCN1CCN(c2nsc3ccccc23)CC1     midrange
5  N#Cc1cc2c(cn1)C(=O)N(CCN1CCN(c3nsc4ccccc34)CC1)CC2   bottom end

Hi, small favor: classify `O=C1c2ncccc2CCN1CCN1CCC(c2noc3cccc(F)c23)CC1` by its Ki when you get a moment. bottom end

Hi, small favor: classify `Cc1c2c(nn1C)CCN(CCN1CCN(c3nsc4ccccc34)CC1)C2=O` by its Ki when you get a moment. bottom end

Hi, small favor: classify `Cn1ncc2c1C(=O)N(CCN1CCN(c3nsc4ccccc34)CC1)CCC2` by its Ki when you get a moment. midrange

Hi, small favor: classify Cn1ccc2c1CCCN(CCN1CCC(c3noc4ccccc34)C1)C2=O (stereo not drawn) by its Ki when you get a moment. midrange

Hi, small favor: classify `Cc1n[nH]c2c1C(=O)N(CCN1CCC(c3noc4ccccc34)CC1)CC2` by its Ki when you get a moment. top end

Hi, small favor: classify Cn1cc2c(n1)CCN(CCN1CCC(c3noc4ccccc34)C1)C2=O (stereo not drawn) by its Ki when you get a moment. top end

* * *

target: human 5-HT1A receptor (Homo sapiens (Human)); experiment: Test 2: agonist activity for human 5-HT1A receptor ([35S]GTPγS binding); settings: [35S]GTPγS binding; concentration at which half the activity of Emax was obtained
Endpoint: EC50 (nM)
// units = nM; emit number, no label

> print(dat)
                                   compound  measured.number
1  O=c1c2cnccc2ccn1CCN1CCN(c2noc3ccccc23)CC1 [Example 116]              882
2  Cn1ncc2c1CCN(CCN1CCN(c3nsc4ccccc34)CC1)C2=O [Example 63]               16
3  Cn1nc(Br)c2c1CCN(CCN1CCC(c3noc4ccccc34)CC1)C2=O [Example 70]             79.3

Supply EC50 value. Item: COc1cc2c(cn1)CCN(CCN1CCN(c3nsc4ccccc34)CC1)C2=O [Example 19] 6.7

Supply EC50 value. Item: O=C1c2ncoc2CCN1CCN1CCC(c2noc3ccccc23)CC1 [Example 190] 7210

Supply EC50 value. Item: O=C1c2cnc(OC3COC3)cc2CCN1CCN1CCN(c2nsc3ccccc23)CC1 [Example 111] 4.58

Supply EC50 value. Item: O=C1c2nc(Cl)ccc2CCN1CCN1CCC(c2noc3ccccc23)CC1 [Example 146] 6.07
